- target under test: Pantothenate synthetase (Mycobacterium tuberculosis (strain ATCC 25618 / H37Rv)) (UniProt P9WIL5)
- Sequence (P9WIL5 whole entry, looked up): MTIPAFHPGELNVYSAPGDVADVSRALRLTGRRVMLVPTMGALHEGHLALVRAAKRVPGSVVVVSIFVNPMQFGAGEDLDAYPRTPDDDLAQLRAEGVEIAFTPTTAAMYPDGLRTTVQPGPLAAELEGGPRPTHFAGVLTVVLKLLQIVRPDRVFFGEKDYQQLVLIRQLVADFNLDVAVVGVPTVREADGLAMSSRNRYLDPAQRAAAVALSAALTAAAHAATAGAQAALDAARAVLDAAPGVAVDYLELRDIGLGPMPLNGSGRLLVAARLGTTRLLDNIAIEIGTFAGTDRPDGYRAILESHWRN
- procedure text: Coupled enzyme confirmation of inhibitors against recombinant Mtb PanC (AID 375);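 note: 0% = full reaction with vehicle and 100% = no enzyme background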
- measurement conditions: coupled enzyme assay; at 10 µM, hits give high values
What inhibition was measured for each of the following?
One number for each entry, in %.

compound | unit | inhibition
c1ccc(-c2ccc(C(c3ccccc3)n3ccnc3)cc2)cc1 (stereo not given) | % | 3

The following compounds each have a reported value; give each one's inhibition.
1. [N-]=[N+]=CC(=O)OC[C@H](N)C(=O)O
2. CC1CCN(C(=S)c2ccccc2O)CC1
3. CCCc1cc(C(=O)Nc2sc3c(c2C#N)CCC3)no1
4. CCOC(=O)c1[nH]c2ccc(F)cc2c1NC(=O)C(C)N1CCc2cc(OC)c(OC)cc2C1 (stereo not given)
5. COc1ccccc1C(=O)Nc1ccccc1C(=O)N1CCCC1
6. O=C(Nc1ccc(Br)c2cccnc12)c1ccc(Cn2cc(Cl)cn2)o1

0
0
7
3
1
1

The following compounds each have a reported value; give each one's inhibition.
1. CC(=O)OCC1OC(c2ccccc2)C(OC(C)=O)C(OC(C)=O)C1OC(C)=O (stereo not given)
2. Nc1c(N2CCCCC2)c(=O)[nH]c(=O)n1-c1ccccc1
3. CC(=O)Oc1ccc(C(c2ccc(OC(C)=O)cc2)c2ccccn2)cc1
4. CCOC(=O)c1ccc2[nH]c(C)c(CN3CCN(C)CC3)c(=O)c2c1

1: 0; 2: 0; 3: 0; 4: 0

The following compounds each have a reported value; give each one's inhibition.
1. O=C(COc1cccc(Oc2ccccc2)c1)Nc1ncccn1
2. Cc1cc(C(F)F)n2ncc(C(=O)NC3CCCCCC3)c2n1
3. Cc1ccc(O)c(-c2cc(C(=O)Nc3ccc(S(=O)(=O)N4CC(C)OC(C)C4)cc3)[nH]n2)c1 (stereo not given)
4. CC(C)NC(=O)c1ccccc1NC(=O)c1ccccc1N(C)S(C)(=O)=O
5. Cc1cc(C)n2cc(CSc3nnnn3-c3ccc(Cl)cc3)nc2n1
6. CNC(=O)Nc1cccc(C(F)(F)F)c1
7. O=C(NCc1ccccn1)Nc1ccc2c(c1)OCO2
8. O=C(NCC1COc2ccccc2O1)C1CCCN(S(=O)(=O)c2cnc[nH]2)C1 (stereo not given)

2
0
5
4
0
0
4
0

The following compounds each have a reported value; give each one's inhibition.
1. Cc1nc2ccccc2c(=O)n1NC(=O)Nc1ccccc1
2. COc1ccc(CCN(C)CCCC(C#N)(c2cc(OC)c(OC)c(OC)c2)C(C)C)cc1OC (stereo not given)
3. COc1ccc(CCNC(=O)C2CCN(S(=O)(=O)c3cc(OC)ccc3OC)CC2)cc1
4. Cc1ccccc1OCCCN1C(=O)C(=O)c2cccc(C)c21

[0, 0, 0, 0]

The following compounds each have a reported value; give each one's inhibition.
1. Oc1ccc(Nc2nc(-c3ccc(O)cc3)cs2)cc1
2. Clc1ccc(SCCCCn2ccnc2)cc1
3. CCNc1oc(COc2cccc(C)c2)nc1C#N
4. CCOC(=O)CC(=O)Nc1c(C)cc(C)cc1C
5. CC(Sc1nnnn1-c1ccccc1)C(=O)Nc1ccc(Cl)cn1 (stereo not given)

1. 2
2. 8
3. 5
4. 4
5. 2

The following compounds each have a reported value; give each one's inhibition.
1. CP(C)(=O)CCC(=O)O
2. O=C(OCC#CCSc1nc2ccccc2s1)c1ccco1
3. Cc1cc(C)c(OCC(=O)Nc2ccc3c(c2)OCO3)cc1C

0
3
2

The following compounds each have a reported value; give each one's inhibition.
1. Nc1nnnn1NCc1cccc(OCc2ccccc2)c1
2. COc1cccc(-c2noc(C3CCCN(C(=O)Cc4ccccc4)C3)n2)c1 (stereo not given)
3. O=C(CSc1nnc(Cn2nnc(-c3ccccc3)n2)n1-c1ccccc1)Nc1ccc(F)cc1
4. CCC(Oc1ccccc1)C(=O)Nc1ccccc1OC (stereo not given)

0
0
1
0
